- measurement protocol: self-splicing fitness, log relative to wild type (ln ratio); higher = more splicing; Tetrahymena group I intron in knt gene, E. coli kanamycin selection, DiMSum; sequences stand for … in CUCUCU…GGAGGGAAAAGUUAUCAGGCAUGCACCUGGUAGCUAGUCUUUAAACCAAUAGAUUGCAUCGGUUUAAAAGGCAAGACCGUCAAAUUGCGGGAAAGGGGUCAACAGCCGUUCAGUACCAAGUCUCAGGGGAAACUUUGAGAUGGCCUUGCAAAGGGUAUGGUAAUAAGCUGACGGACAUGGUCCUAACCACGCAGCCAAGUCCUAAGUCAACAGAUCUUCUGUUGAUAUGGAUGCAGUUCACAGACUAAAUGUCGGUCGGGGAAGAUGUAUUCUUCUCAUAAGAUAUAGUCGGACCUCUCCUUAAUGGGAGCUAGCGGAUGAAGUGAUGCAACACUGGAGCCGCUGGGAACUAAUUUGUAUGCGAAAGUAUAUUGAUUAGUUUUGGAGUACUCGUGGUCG;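 also: selection with 25 µg/mL kanamycin versus none on LB agar overnight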
- settings: 37 °C
Rule: self-splicing fitness (ln) of -1 or more gives fulfilled; anything lower gives not fulfilled.

Entry `UCGAAGCAAUAUUACGAAGG` : is its self-splicing fitness (ln) no less than -1? not fulfilled

Entry `GACCAGCAAUAUUACGUCGC` : is its self-splicing fitness (ln) no less than -1? fulfilled

Entry `CAGCAGCAAUAUUACGUGCA` : is its self-splicing fitness (ln) no less than -1? fulfilled

Entry `CGAUAGCAAUAUUACGUACC` : is its self-splicing fitness (ln) no less than -1? not fulfilled

Entry `GAACAGCAAUAUUACGUGUA` : is its self-splicing fitness (ln) no less than -1? fulfilled

Entry `AACUAGCAAUAUUACGCGCA` : is its self-splicing fitness (ln) no less than -1? fulfilled

Entry `CCUUAGCAAUAUUACGAGGU` : is its self-splicing fitness (ln) no less than -1? not fulfilled

Entry `CAAUAGCAAUAUUACGCGCA` : is its self-splicing fitness (ln) no less than -1? not fulfilled

Entry `CACUAGCAAUAUUACGCAAG` : is its self-splicing fitness (ln) no less than -1? not fulfilled

Entry `UGUCAGCAAUAUUACGGUGU` : is its self-splicing fitness (ln) no less than -1? not fulfilled

Entry `UUCUAGCAAUAUUACGUCUA` : is its self-splicing fitness (ln) no less than -1? not fulfilled

Entry `GCACAGCAAUAUUACGUCAC` : is its self-splicing fitness (ln) no less than -1? not fulfilled

Entry `AUCUAGCAAUAUUACGGGCU` : is its self-splicing fitness (ln) no less than -1? not fulfilled

Entry `ACGCAGCAAUAUUACGAGUG` : is its self-splicing fitness (ln) no less than -1? not fulfilled

Entry `AGCGAGCAAUAUUACGAAGG` : is its self-splicing fitness (ln) no less than -1? not fulfilled

Entry `CCUGAGCAAUAUUACGUUUA` : is its self-splicing fitness (ln) no less than -1? not fulfilled

Entry `UCGAAGCAAUAUUACGGAAU` : is its self-splicing fitness (ln) no less than -1? not fulfilled

Entry `UCGCAGCAAUAUUACGUGAA` : is its self-splicing fitness (ln) no less than -1? fulfilled

Entry `CACCAGCAAUAUUACGAGGG` : is its self-splicing fitness (ln) no less than -1? not fulfilled

Entry `ACCCAGCAAUAUUACGGCAC` : is its self-splicing fitness (ln) no less than -1? fulfilled

Entry `AAGUAGCAAUAUUACGGGCG` : is its self-splicing fitness (ln) no less than -1? not fulfilled

Entry `UCGUAGCAAUAUUACGGCAG` : is its self-splicing fitness (ln) no less than -1? not fulfilled

Entry `UCUUAGCAAUAUUACGCUUC` : is its self-splicing fitness (ln) no less than -1? not fulfilled

Entry `CUAAAGCAAUAUUACGCAUU` : is its self-splicing fitness (ln) no less than -1? not fulfilled

Entry `GUACAGCAAUAUUACGGUGU` : is its self-splicing fitness (ln) no less than -1? not fulfilled

Entry `UUGUAGCAAUAUUACGGCCG` : is its self-splicing fitness (ln) no less than -1? fulfilled

Entry `ACCUAGCAAUAUUACGUGUG` : is its self-splicing fitness (ln) no less than -1? fulfilled

Entry `GAGCAGCAAUAUUACGAUUU` : is its self-splicing fitness (ln) no less than -1? fulfilled

Entry `GGGCAGCAAUAUUACGUCUC` : is its self-splicing fitness (ln) no less than -1? not fulfilled

Entry `CAUGAGCAAUAUUACGUCUU` : is its self-splicing fitness (ln) no less than -1? not fulfilled

Entry `GACAAGCAAUAUUACGCCAC` : is its self-splicing fitness (ln) no less than -1? not fulfilled

Entry `CUAGAGCAAUAUUACGAAGG` : is its self-splicing fitness (ln) no less than -1? fulfilled

Entry `ACAUAGCAAUAUUACGAGUG` : is its self-splicing fitness (ln) no less than -1? not fulfilled

Entry `AGCAAGCAAUAUUACGUCGG` : is its self-splicing fitness (ln) no less than -1? not fulfilled

Entry `AACUAGCAAUAUUACGCCCU` : is its self-splicing fitness (ln) no less than -1? fulfilled

Entry `GUGCAGCAAUAUUACGGGAU` : is its self-splicing fitness (ln) no less than -1? not fulfilled

Entry `UAGUAGCAAUAUUACGGUCU` : is its self-splicing fitness (ln) no less than -1? fulfilled

Entry `CAGAAGCAAUAUUACGUUAA` : is its self-splicing fitness (ln) no less than -1? not fulfilled

Entry `AAGGAGCAAUAUUACGCACC` : is its self-splicing fitness (ln) no less than -1? not fulfilled
